# TEST METHOD NOTES: Stability (cleavage to parent drug) of prodrug suspensions in PBS pH 7.4
# Format: physicochemical
# CONDITION: cleavage of prodrug in PBS pH 7.4, 37° C.; calculated from k0 and Sprodrug
MEASURED ENDPOINT: estimated pseudo first-order rate constant khyd (day⁻¹)

In the examples that follow, each entry is paired with its recorded estimated pseudo first-order rate constant khyd.
- O=C(Cc1ccccc1Nc1c(Cl)cccc1Cl)OCCc1ccccn1: 0.15
- CC(C)Cc1ccc(C(C)C(=O)OCCn2cnc3ccccc32)cc1 (centres unmarked): 0.048
- CC(C)Cc1ccc(C(C)C(=O)OCCc2ccccn2)cc1 (centres unmarked): 0.022
- COc1ccc2cc(C(C)C(=O)OCCn3cnc4ccccc43)ccc2c1 (centres unmarked): 0.066
- O=C(Cc1ccccc1Nc1c(Cl)cccc1Cl)OCCn1ccnc1-c1ccccc1: 0.0029

1 = O=C(Cc1ccccc1Nc1c(Cl)cccc1Cl)OCCn1cnc2ccccc21
2 = COc1ccc2cc(C(C)C(=O)OCCn3ccnc3-c3ccccc3)ccc2c1 (centres unmarked)
// query Param pair: 1 , 2 . Output: the one whose estimated pseudo first-order rate constant khyd is numerically greater. // return label of chosen record
// result 1
(1: 0.17 day⁻¹, 2: 0.065 day⁻¹)

---

# TEST METHOD NOTES: Solubility of the prodrugs in PBS (67 mM phosphate buffer pH 7.4)
# CONDITION: 67 mM phosphate buffer (PBS), pH 7.4, aqueous buffer, thermodynamic from solid
MEASURED ENDPOINT: solubility (µg/mL)
Give your result in µg/mL as a bare value.

// query Entry COc1ccc2cc(C(C)C(=O)OCCn3ccnc3-c3ccccc3)ccc2c1 (centres unmarked) has what solubility?
// result 7

---

# TEST METHOD NOTES: Solubility of the prodrugs in PBS (67 mM phosphate buffer pH 7.4)
# CONDITION: 67 mM phosphate buffer pH 7.4 (PBS), 37 °C, pH 7.4, aqueous buffer, thermodynamic from solid
MEASURED ENDPOINT: solubility thermodynamic

// query Entry COc1ccc2cc(C(C)C(=O)OCCc3ccc(N(C)C)cc3)ccc2c1 (centres unmarked) has what solubility thermodynamic?
// result < 0.3 µg/mL

// query Entry COc1ccc2cc(C(C)C(=O)OCCn3ccnc3-c3ccccc3)ccc2c1 (centres unmarked) has what solubility thermodynamic?
// result 16 µM

// query Entry O=C(Cc1ccccc1Nc1c(Cl)cccc1Cl)OCCn1cnc2ccccc21 has what solubility thermodynamic?
// result 7 µg/mL

// query Entry COc1ccc2cc(C(C)C(=O)OCCCN(C)c3ccccc3)ccc2c1 (centres unmarked) has what solubility thermodynamic?
// result < 1 µg/mL

// query Entry CCCc1nccn1CCCCCCOC(=O)Cc1ccccc1Nc1c(Cl)cccc1Cl has what solubility thermodynamic?
// result < 0.4 µg/mL

---

# TEST METHOD NOTES: Stability (cleavage to parent drug) of prodrug suspensions in PBS pH 7.4
# Assay type: physicochemical
# CONDITION: 67 mM phosphate buffer (PBS); PBS pH 7.4, 37° C.; read-out: t1/2 in PBS (converted)
MEASURED ENDPOINT: half-life at 0.5 mg/mL (days)

In the examples that follow, each entry is paired with its recorded half-life at 0.5 mg/mL.
• O=C(Cc1ccccc1Nc1c(Cl)cccc1Cl)OCCn1ccnc1-c1ccccc1 [DPX-1-0007] = 242
• COc1ccc2cc(C(C)C(=O)OCCn3cnc4ccccc43)ccc2c1 (centres unmarked) [DPX-2-0006] = 11
• COc1ccc2cc(C(C)C(=O)OCCn3ccnc3-c3ccccc3)ccc2c1 (centres unmarked) [DPX-2-0007] = 11
• CC(C)Cc1ccc(C(C)C(=O)OCCc2ccccn2)cc1 (centres unmarked) [DPX-3-0004] = 32
• O=C(Cc1ccccc1Nc1c(Cl)cccc1Cl)OCCn1cnc2ccccc21 [DPX-1-0006] = 4

1 = COc1ccc2cc(C(C)C(=O)OCCc3ccccn3)ccc2c1 (centres unmarked) [DPX-2-0004]
2 = O=C(Cc1ccccc1Nc1c(Cl)cccc1Cl)OCCc1ccccn1 [DPX-1-0004]
// query Param pair: 1 , 2 . Output: the one whose half-life at 0.5 mg/mL is numerically greater. // return label of chosen record
// result 1
(1: 21 days, 2: 5 days)

---

# TEST METHOD NOTES: pKa value
# Format: physicochemical
MEASURED ENDPOINT: pKa

- CN(C)c1ccc(CCOC(=O)C2CCn3c(C(=O)c4ccccc4)ccc32)cc1 (centres unmarked): ~5.2

--- query ---
// query Entry CN(C)c1ccc(CCO)cc1 [IPU 1, 4-(hydroxyethyl)-N,N-dimethylaniline] has what pKa?
// result ~5.2

---

# TEST METHOD NOTES: Hydrolysis of the prodrugs in 80% human plasma
# Type: in vitro ADME
# CONDITION: hydrolysis in 80% human plasma at 37° C.; read-out: t1/2 in plasma
MEASURED ENDPOINT: half-life (min)

In the examples that follow, each entry is paired with its recorded half-life.
• O=C(Cc1ccccc1Nc1c(Cl)cccc1Cl)OCCn1cnc2ccccc21 [DPX-1-0006] = 3
• COc1ccc2cc(C(C)C(=O)OCCn3cnc4ccccc43)ccc2c1 (centres unmarked) [DPX-2-0006] = 511
• O=C(Cc1ccccc1Nc1c(Cl)cccc1Cl)OCCn1ccnc1-c1ccccc1 [DPX-1-0007] = 49

P = O=C(Cc1ccccc1Nc1c(Cl)cccc1Cl)OCCc1ccccn1 [DPX-1-0004]
Q = COc1ccc2cc(C(C)C(=O)OCCn3ccnc3-c3ccccc3)ccc2c1 (centres unmarked) [DPX-2-0007]
// query Param metric = half-life; output whichever of P , Q has the minimum value. // return label of chosen record
// result P
(P: 25 min, Q: 62 min)

---

# TEST METHOD NOTES: Solubility of the prodrugs in PBS (67 mM phosphate buffer pH 7.4)
# CONDITION: PBS (67 mM phosphate buffer pH 7.4), 37° C.
MEASURED ENDPOINT: Sprodrug ± SD (mM)

In the examples that follow, each entry is paired with its recorded Sprodrug ± SD.
• COc1ccc2cc(C(C)C(=O)OCCn3ccnc3)ccc2c1 (stereo not drawn) = 0.45
• CN(C)c1ccc(CCOC(=O)Cc2ccccc2Nc2c(Cl)cccc2Cl)cc1 [DPX-1-0001] = 2e-05
• O=C(Cc1ccccc1Nc1c(Cl)cccc1Cl)OCCc1ccccn1 [DPX-1-0004] = 0.007

1 = CCCc1nccn1CCOC(=O)Cc1ccccc1Nc1c(Cl)cccc1Cl [DPX-1-0008]
2 = Cn1ccnc1CCOC(=O)Cc1ccccc1Nc1c(Cl)cccc1Cl [DPX-1-0011]
3 = CC(C)Cc1ccc(C(C)C(=O)OCCn2ccnc2-c2ccccc2)cc1 (stereo not drawn) [DPX-3-0007]
// query Put the molecules in ascending order of Sprodrug ± SD. State the ranking by listing the labels in the requested order.
// result 2, 1, 3

---

# TEST METHOD NOTES: Hydrolysis of the prodrugs in 80% human plasma
# Type: in vitro ADME
# CONDITION: hydrolysis in 80% human plasma at 37° C.; read-out: t1/2 in plasma
MEASURED ENDPOINT: half-life (h)

- COc1ccc2cc(C(C)C(=O)OCCn3ccnc3)ccc2c1 (stereo not drawn): 1.07

1 = COc1ccc2cc(C(C)C(=O)OCCc3ccccn3)ccc2c1 (stereo not drawn) [DPX-2-0004]
2 = CC(C)Cc1ccc(C(C)C(=O)OCCc2ccccn2)cc1 (stereo not drawn) [DPX-3-0004]
// query Param metric = half-life; output whichever of 1 , 2 has the minimum value. // return label of chosen record
// result 1
(1: 4.78 h, 2: 12.6 h)

---

# TEST METHOD NOTES: Stability (cleavage to parent drug) of prodrug suspensions in PBS pH 7.4
# Format: physicochemical
# CONDITION: appearance of parent drug in PBS pH 7.4 suspension, 37° C.
MEASURED ENDPOINT: apparent pseudo-zero-order rate constant k0 (M/day)

• COc1ccc2cc(C(C)C(=O)OCCn3cnc4ccccc43)ccc2c1 (centres unmarked) = 1e-06

a = COc1ccc2cc(C(C)C(=O)OCCn3ccnc3-c3ccccc3)ccc2c1 (centres unmarked)
b = O=C(Cc1ccccc1Nc1c(Cl)cccc1Cl)OCCn1ccnc1-c1ccccc1
c = O=C(Cc1ccccc1Nc1c(Cl)cccc1Cl)OCCn1cnc2ccccc21
// query Put the compounds in ascending order of apparent pseudo-zero-order rate constant k0. State the ranking by listing the labels in the requested order.
// result b, a, c
(b: 2.5e-07 M/day, a: 1e-06 M/day, c: 2.4e-06 M/day)

---

# TEST METHOD NOTES: Solubility at acidic pH, with and without DMA cosolvent
# Type: physicochemical
# CONDITION: demineralized water acidified with HCl, 37 °C, pH 2.9, aqueous buffer, thermodynamic from solid, pH 2.9, 37° C., no DMA
MEASURED ENDPOINT: solubility at 1 day (µg/mL)
Give your result in µg/mL as a bare value.

// query Entry COc1ccc2cc(C(C)C(=O)OCCn3cnc4ccccc43)ccc2c1 (stereo not shown) has what solubility at 1 day?
// result 180
